Cited source: patent EP1285920A1

# Tested on: MX-1 human breast carcinoma
# Type: in vivo
# ASSAY_CONDITIONS: number of mice; single oral bolus Day 1; mg/kg: 0499 80, 0550 73, 0611 113, 0748 200; 6 mice/group
Provide the recorded Toxic Deaths for the entries that follow.
The response must contain the number and no unit.

Value sought: Toxic Deaths, system MX-1 human breast carcinoma, item CCC(=O)O[C@H]1C(=O)[C@@]2(C)[C@H]([C@H](OC(=O)c3ccccc3)[C@]3(O)C[C@H](OC(=O)[C@H](O)[C@@H](NC(=O)c4ccccc4)c4ccccc4)C(C)=C1C3(C)C)[C@]1(OC(C)=O)CO[C@@H]1C[C@@H]2O [Compound 0748] . Result: 0

Measured Toxic Deaths for this entry CCC(=O)O[C@H]1C(=O)[C@@]2(C)[C@H]([C@H](OC(=O)c3ccccc3)[C@]3(O)C[C@H](OC(=O)[C@H](O)[C@H](C=C(C)C)NC(=O)OC(C)(C)C)C(C)=C1C3(C)C)[C@]1(OC(C)=O)CO[C@@H]1C[C@@H]2O [Compound 0499] on MX-1 human breast carcinoma: 0

# lookup: CCC(=O)O[C@H]1C(=O)[C@@]2(C)[C@H]([C@H](OC(=O)c3ccccc3)[C@]3(O)C[C@H](OC(=O)[C@H](O)[C@@H](NC(=O)OC(C)(C)C)c4cccs4)C(C)=C1C3(C)C)[C@]1(OC(C)=O)CO[C@@H]1C[C@@H]2O [Compound 0550] on MX-1 human breast carcinoma, Toxic Deaths = 0

---

# System: MX-1 carcinoma
# ASSAY_CONDITIONS: number of 6 mice; i.v. qd x 1 at MTD, Day 60; mg/kg: Taxol 36 (split dose), 0503 72.6, 0536 49, 0663 159, 0670 123, 0687 159, 0706 108, 0908 159, 0947 76.9, 0951 72.6, 0983 67.4, 0999 49, 1003 49, 1011 108
Hi there, I'd appreciate the recorded Toxic Deaths for every entry that follows.
No unit in the answer, please; the number alone is enough.

Memo: CCC(=O)O[C@H]1C(=O)[C@@]2(C)[C@H]([C@H](OC(=O)c3ccccc3)[C@]3(O)C[C@H](OC(=O)[C@H](O)[C@@H](NC(=O)OC(C)(C)C)c4ccco4)C(C)=C1C3(C)C)[C@]1(OC(C)=O)CO[C@@H]1C[C@@H]2O , reported Toxic Deaths: 2

Input CCC(=O)O[C@H]1C(=O)[C@@]2(C)[C@H]([C@H](OC(=O)c3ccccc3)[C@]3(O)C[C@H](OC(=O)[C@H](O)[C@@H](NC(=O)c4ccccc4)C4CC4)C(C)=C1C3(C)C)[C@]1(OC(C)=O)CO[C@@H]1C[C@@H]2O . Output Toxic Deaths: 1

---

# Test system: HCT116 carcinoma
# ASSAY_CONDITIONS: iv
# Description: Antitumor compounds were formulated for an i.v. dosing regime and were prepared in the following vehicle: 5% ethanol, 5% Cremophor and 90% isotonic saline. The antitumor compounds were given intravenously in a single maximum tolerated dose (MTD) appropriate for each compound. […] The MTDs for the antitumor compounds were calculated from earlier single dose data for mice receiving i.v. administration of these compounds. […]
Please go through the items and note down their Partial Response.
// return just the number, without any unit appended

// field: Partial Response; key: CCCC(=O)O[C@H]1C(=O)[C@@]2(C)[C@H]([C@H](OC(=O)c3ccccc3)[C@]3(O)C[C@H](OC(=O)[C@H](O)[C@H](C=C(C)C)NC(=O)OC(C)(C)C)C(C)=C1C3(C)C)[C@]1(OC(C)=O)CO[C@@H]1C[C@@H]2O ; value = 4

Lookup result for CCCC(=O)O[C@H]1C(=O)[C@@]2(C)[C@H]([C@H](OC(=O)c3ccccc3)[C@]3(O)C[C@H](OC(=O)[C@H](O)[C@@H](NC(=O)OC(C)(C)C)c4cccs4)C(C)=C1C3(C)C)[C@]1(OC(C)=O)CO[C@@H]1C[C@@H]2O ; measured Partial Response: 3

// Partial Response lookup, molecule = CCC(=O)O[C@H]1C(=O)[C@@]2(C)[C@H]([C@H](OC(=O)c3ccccc3)[C@]3(O)C[C@H](OC(=O)[C@H](O)[C@@H](NC(=O)c4ccccc4)c4ccoc4)C(C)=C1C3(C)C)[C@]1(OC(C)=O)CO[C@@H]1C[C@@H]2O , result: 1

Note to self: Partial Response recorded for CCCC(=O)O[C@H]1C(=O)[C@@]2(C)[C@H]([C@H](OC(=O)c3ccccc3)[C@]3(O)C[C@H](OC(=O)[C@H](O)[C@@H](NC(=O)OC(C)(C)C)c4ccco4)C(C)=C1C3(C)C)[C@]1(OC(C)=O)CO[C@@H]1C[C@@H]2O was 1

// Partial Response value for CCC(=O)O[C@H]1C(=O)[C@@]2(C)[C@H]([C@H](OC(=O)c3ccccc3)[C@]3(O)C[C@H](OC(=O)[C@H](O)[C@@H](NC(=O)c4ccccc4)C4CC4)C(C)=C1C3(C)C)[C@]1(OC(C)=O)CO[C@@H]1C[C@@H]2O : 4

Just so you know, measured Partial Response for CCC(=O)O[C@H]1C(=O)[C@@]2(C)[C@H]([C@H](OC(=O)c3ccccc3)[C@]3(O)C[C@H](OC(=O)[C@H](O)[C@@H](NC(=O)c4ccccc4)c4ccco4)C(C)=C1C3(C)C)[C@]1(OC(C)=O)CO[C@@H]1C[C@@H]2O came out at 2

Recorded result, CCCC(=O)O[C@H]1C(=O)[C@@]2(C)[C@H]([C@H](OC(=O)c3ccccc3)[C@]3(O)C[C@H](OC(=O)[C@H](O)[C@@H](NC(=O)OC(C)(C)C)c4ccsc4)C(C)=C1C3(C)C)[C@]1(OC(C)=O)CO[C@@H]1C[C@@H]2O , Partial Response: 2

---

# System: MX-1 human breast carcinoma
# Type: in vivo
# ASSAY_CONDITIONS: po, 432 h
ENDPOINT_NAME: % Reduction (Weight)
Returns: string containing the numeric result and its unit.

The value of % Reduction (Weight) measured for the molecule CCC(=O)O[C@H]1C(=O)[C@@]2(C)[C@H]([C@H](OC(=O)c3ccccc3)[C@]3(O)C[C@H](OC(=O)[C@H](O)[C@@H](NC(=O)c4ccccc4)c4ccccc4)C(C)=C1C3(C)C)[C@]1(OC(C)=O)CO[C@@H]1C[C@@H]2O turned out to be 69.1%

// % Reduction (Weight) lookup, molecule = CCC(=O)O[C@H]1C(=O)[C@@]2(C)[C@H]([C@H](OC(=O)c3ccccc3)[C@]3(O)C[C@H](OC(=O)[C@H](O)[C@@H](NC(=O)OC(C)(C)C)c4ccccc4)C(C)=C1C3(C)C)[C@]1(OC(C)=O)CO[C@@H]1C[C@@H]2O , result: 100.0%

// recorded % Reduction (Weight) for CCC(=O)O[C@H]1C(=O)[C@@]2(C)[C@H]([C@H](OC(=O)c3ccccc3)[C@]3(O)C[C@H](OC(=O)[C@H](O)[C@H](C=C(C)C)NC(=O)OC(C)(C)C)C(C)=C1C3(C)C)[C@]1(OC(C)=O)CO[C@@H]1C[C@@H]2O : 100.0%

Data point: CCC(=O)O[C@H]1C(=O)[C@@]2(C)[C@H]([C@H](OC(=O)c3ccccc3)[C@]3(O)C[C@H](OC(=O)[C@H](O)[C@@H](NC(=O)OC(C)(C)C)c4cccs4)C(C)=C1C3(C)C)[C@]1(OC(C)=O)CO[C@@H]1C[C@@H]2O ; % Reduction (Weight) = 100.0%

---

I'd appreciate it if you could supply Maximum Weight Loss (Day) values for the items below.
# Tested on: blood cell populations
# MEASUREMENT_NOTES: Effect of oral treatment on blood cell populations and body weight in the MX-1 study (Example 22)
# Type: in vivo, nu/nu mice
# ASSAY_CONDITIONS: body weight; day of maximum in parentheses in the cell; single oral bolus Day 1; mg/kg: 0499 80, 0550 73, 0611 113, 0748 200

Measured Maximum Weight Loss (Day) of CCC(=O)O[C@H]1C(=O)[C@@]2(C)[C@H]([C@H](OC(=O)c3ccccc3)[C@]3(O)C[C@H](OC(=O)[C@H](O)[C@@H](NC(=O)OC(C)(C)C)c4cccs4)C(C)=C1C3(C)C)[C@]1(OC(C)=O)CO[C@@H]1C[C@@H]2O [Compound 0550] : -16.1% (5)

Briefly, Maximum Weight Loss (Day) measured for CCC(=O)O[C@H]1C(=O)[C@@]2(C)[C@H]([C@H](OC(=O)c3ccccc3)[C@]3(O)C[C@H](OC(=O)[C@H](O)[C@@H](NC(=O)c4ccccc4)c4ccccc4)C(C)=C1C3(C)C)[C@]1(OC(C)=O)CO[C@@H]1C[C@@H]2O [Compound 0748] : -4.6% (5)

The compound listed as CCC(=O)O[C@H]1C(=O)[C@@]2(C)[C@H]([C@H](OC(=O)c3ccccc3)[C@]3(O)C[C@H](OC(=O)[C@H](O)[C@@H](NC(=O)OC(C)(C)C)c4ccccc4)C(C)=C1C3(C)C)[C@]1(OC(C)=O)CO[C@@H]1C[C@@H]2O [Compound 0611] shows Maximum Weight Loss (Day) equal to -15.0% (5)

GET /value?item= CCC(=O)O[C@H]1C(=O)[C@@]2(C)[C@H]([C@H](OC(=O)c3ccccc3)[C@]3(O)C[C@H](OC(=O)[C@H](O)[C@H](C=C(C)C)NC(=O)OC(C)(C)C)C(C)=C1C3(C)C)[C@]1(OC(C)=O)CO[C@@H]1C[C@@H]2O [Compound 0499] &field=Maximum Weight Loss (Day) returns -11.4% (7)
